test: Human HepG2 cell viability assay in 384 well format; type: toxicity, cell-based; design: dose 125 nL, time 70.5 hour; concentration not given beside the values; details: HepG2 cells, read-out: Inhibition
Reported cytotoxicity at 70.5 h values follow for various molecules
The response must be a number in % with no trailing unit.

| molecule | scale-unit | cytotoxicity at 70.5 h |
| --- | --- | --- |
| CC(C)n1ccc(-c2cc(C(=O)NC3CC3)c3ccccn23)n1 | % | 21.3 |
| CN1C[C@@H](N)C[C@H]1c1nc(-c2ccc3c(c2)OCO3)no1 | % | -1.52 |
| O=C(C[C@@H]1COC[C@H]2CN(Cc3cccnc3)C[C@@H]12)N1CCCC1 | % | -4.76 |

Need cytotoxicity at 70.5 h of Cc1ccc(N2CCC(CCN3CCCC3=O)CC2)nn1 , thanks.
-22

Another: Cc1nccn1-c1cccc(C2CCCN(C3CCCC3)C2)n1 (stereo not drawn)
-4.43

Another: CN(C)C(=O)CN1CCN(c2cc(N3CCCC3CO)ncn2)CC1 (stereo not drawn)
-4.56

Another: CCN(CC)c1ncc(Cl)c(C(=O)NC2CCC(O)CC2)n1 (stereo not drawn)
-0.431

Another: Cn1ccc(C(=O)Nc2nc(-c3ccc(Cl)cc3)n[nH]2)cc1=O
24.6

Another: c1cnnc(N2CCCC(NCc3ccc(-n4ccnc4)cc3)C2)c1 (stereo not drawn)
-10.5

---

assay: Human HepG2 cell viability assay in 384 well format; type: toxicity, cell-based; design: dose 125 nL, time 70.5 hour; concentration not given beside the values; settings: HepG2 cells, read-out: Inhibition
measured-quantity: cytotoxicity at 70.5 h (%)
The response must be a number in % with no trailing unit.

| compound | cytotoxicity at 70.5 h [%] |
| --- | --- |
| CSCC[C@H](NC(=O)Cn1ccc2ccc(Cl)cc21)C(=O)O | -16.7 |

Need cytotoxicity at 70.5 h of CN(Cc1ccsc1)C(=O)c1ccc2c(c1)NC(=O)CO2 , thanks.
-7.5

Another: Cc1nc(C(=O)N(Cc2c(C)nn(C)c2C)C(C)C)cs1
-0.883

Another: O=C(NCc1cc[nH]n1)NCC(O)c1ccc(F)cc1 (configuration not stated)
6.85

---

Reported cytotoxicity at 70.5 h values follow for various compounds
assay: Human HepG2 cell viability assay in 384 well format; assay type: toxicity, cell-based; design: dose 125 nL, time 70.5 hour; concentration not given beside the values; conditions: HepG2 cells, read-out: Inhibition
The response must be a number in % with no trailing unit.

# example entries with known answers
| compound | recorded-value |
| --- | --- |
| Cc1ccc(CN(CCCN2CCOCC2)Cc2cnn(C)c2)o1 | 0.657 |
| CCCNC(=O)CN(C)C1CCN(c2ccc(Cl)cc2)CC1 | -6.78 |
| Cc1nn(C)c2nc(N(Cc3ccccc3)CC3CCCO3)sc12 (stereo not drawn) | -11 |
| O=C(c1ccccn1)N1CC(S(=O)(=O)c2ccc(Cl)cc2)C1 | 1.72 |
| CC(=O)N1CCC2(CC1)CN(C(=O)c1ccc3c(c1)OCO3)C2 | 5.17 |
| CC1(C)Cc2ccc(C(=O)NC3CCS(=O)(=O)C3)c(O)c2O1 (stereo not drawn) | 12.1 |
| CCN1C(=O)COC[C@@H]1[C@H](O)c1ccc(NC(=O)COC)cc1 | 11 |
| COc1ccc(C)nc1NC(=O)CCc1c(C)nn(C)c1C | 6.42 |
| Cc1ccc(C)c(S(=O)(=O)NCCNc2ccc(-n3cccc3)nn2)c1 | -7.55 |
| CC1CCN(S(=O)(=O)NC2CCCCNC2=O)CC1 (stereo not drawn) | -5.25 |

Need cytotoxicity at 70.5 h of CCc1nc(CC(=O)N2CCCC2CN2CCCC2)cs1 (stereo not drawn) , thanks.
-1.93

Another: COC(=O)C1CCN(C(=O)c2ccc(C)c(NS(C)(=O)=O)c2)CC1
-8.87

Another: Cc1cc(=O)[nH]c(-n2nc(-c3ccccc3)cc2N)n1
12.5

Another: CC1CCCN(Cc2ccc(C(N)=O)cc2)C1 (stereo not drawn)
0.459

Another: c1ccc(OCCCNCc2cccs2)nc1
10.1

Another: CN(CC(C)(C)C)c1ccc(C(=O)NCCCc2ccccn2)cn1
-8.74

Another: CCCC(=O)NCCCn1ncc2c(C)cccc21
-12.9

---

experiment: Human HepG2 cell viability assay in 384 well format; type: toxicity, cell-based; parameters: dose 125 nL, time 70.5 hour; concentration not given beside the values; settings: HepG2 cells, read-out: Inhibition
measured-quantity: cytotoxicity at 70.5 h (%)
The response must be a number in % with no trailing unit.

# example entries with known answers
| compound | cytotoxicity at 70.5 h, % |
| --- | --- |
| Cc1cc(CN2CCCC2c2noc(C3CC3)n2)c2ccccc2n1 (stereo not given) | 51.7 |
| NC(=O)c1cnn2c(C3CCCN(C4CCOCC4)C3)ccnc12 (stereo not given) | -0.336 |

Need cytotoxicity at 70.5 h of COCCC1(CO)CCCN(C(=O)c2cccnc2OC)C1 (stereo not given) , thanks.
-5.91

Another: Cc1ccccc1CNc1ccc(S(N)(=O)=O)c(C(F)(F)F)c1
4.82

Another: Cc1noc(C(C)N2CCN(Cc3noc(C4CC4)n3)CC2)n1 (stereo not given)
-8.62

---

assay: Human HepG2 cell viability assay in 384 well format; assay type: toxicity, cell-based; parameters: dose 125 nL, time 70.5 hour; concentration not given beside the values; settings: HepG2 cells, read-out: Inhibition
Reported cytotoxicity at 70.5 h values follow for various molecules

# example entries with known answers
| molecule | cytotoxicity at 70.5 h |
| --- | --- |
| COCCn1cc(C(=O)N2CCCC2c2cnn(C)c2)ccc1=O (stereo not drawn) | -6.63% |
| CS(=O)(=O)N1CCN(C(=O)c2cc(-c3ccco3)cs2)CC1 | 0.0321% |
| O=C(CCCOc1ccccc1)N1CCCC(n2cncn2)C1 (stereo not drawn) | 2.63% |
| Cc1ccc(CN(Cc2nc3c(cnn3C)c(=O)[nH]2)C2CC2)o1 | -5.9% |
| COCc1nn(C(C)C)c2c1CCN(Cc1cccs1)C2 | -6.03% |

Need cytotoxicity at 70.5 h of O=C(Cn1cc(Cl)cn1)NCCN1CCC(O)(c2ccc(F)cc2)CC1 , thanks.
5.27%

Another: CCOCc1ccc(CNc2nc(OC)ncc2Cl)cc1
-10.8%

---

assay: Human HepG2 cell viability assay in 384 well format; type: toxicity, cell-based; set-up: dose 125 nL, time 70.5 hour; concentration not given beside the values; conditions: HepG2 cells, read-out: Inhibition
Reported cytotoxicity at 70.5 h values follow for various compounds
The response must be a number in % with no trailing unit.

# example entries with known answers
| compound | measured-quantity | scale-unit | recorded-value |
| --- | --- | --- | --- |
| O=C1[C@H]2CN(c3ncccn3)C[C@H]2CN1Cc1ccncc1 | cytotoxicity at 70.5 h | % | 3.36 |
| Cc1noc(CN(Cc2ccco2)Cc2cccc3c2OCO3)n1 | cytotoxicity at 70.5 h | % | -1.63 |
| CN1C(=O)CC(C(=O)O)C12CCN(Cc1ccc(Cl)c(Cl)c1)CC2 (stereo not given) | cytotoxicity at 70.5 h | % | -7.82 |
| CC(C)N1CCC2(CCN(C(=O)c3cccnc3)CC2)C1 | cytotoxicity at 70.5 h | % | -16.3 |
| Cc1nn(C)c(Cl)c1C1CCCN1Cc1nnc(C2CC2)o1 (stereo not given) | cytotoxicity at 70.5 h | % | -5.62 |
| c1cncc(N2CCCn3nnc(CN4CCOCC4)c3C2)c1 | cytotoxicity at 70.5 h | % | -5 |
| Cc1ccc(N2CCN(C(=O)COc3ccccc3)CC2)nn1 | cytotoxicity at 70.5 h | % | -1.33 |
| O=C1N(CC2CCCC2)CCC12CCN(c1ncc(F)cn1)CC2 | cytotoxicity at 70.5 h | % | -7.22 |
| COc1ccc(CN2C[C@@H](CN(C)C)[C@@H](CO)C2)cc1CN1CCCC1 | cytotoxicity at 70.5 h | % | 5.87 |
| CCOc1ncccc1C(=O)N1CCN(C)C2(CCN(C)CC2)C1 | cytotoxicity at 70.5 h | % | 4.53 |

Need cytotoxicity at 70.5 h of O=C(NCCNc1ccc(C(F)(F)F)cn1)c1cncc(Br)c1 , thanks.
-12.5

Another: CC(NC(=O)c1nc(=O)[nH][nH]1)c1ccc(OCC2CC2)c(F)c1 (stereo not given)
29.1

Another: Cc1cnn(CCNCC(=O)NCCOc2ccccc2)c1
39.9

Another: N[C@H]1CC[C@@H](n2cc(C(=O)N[C@H]3CCCc4ccccc43)nn2)CC1
-10.4

Another: Cc1cc(N)nc(C2(C)CCCN2C(=O)c2cnccn2)n1 (stereo not given)
4.65
